Entry source: ChEMBL document CHEMBL1131264

Molecular target: NAD(P)H dehydrogenase [quinone] 1 (Homo sapiens) (UniProt P15559)
Sequence (P15559 whole entry): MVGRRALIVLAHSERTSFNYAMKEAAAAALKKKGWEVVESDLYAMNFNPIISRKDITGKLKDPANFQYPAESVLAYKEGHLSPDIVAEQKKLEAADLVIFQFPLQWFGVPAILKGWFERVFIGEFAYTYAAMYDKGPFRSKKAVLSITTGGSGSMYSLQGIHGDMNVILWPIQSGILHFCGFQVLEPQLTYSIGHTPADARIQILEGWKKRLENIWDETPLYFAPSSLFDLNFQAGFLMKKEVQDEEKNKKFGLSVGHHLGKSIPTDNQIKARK
Assay: Metabolism by recombinant human NQO1,using an HPLC system designed to quantify both NADH oxidation and quinone reduction; Not detected
quantityMeasured: Metabolism

Sample answers from the record:
compound=NC(=O)OCc1c2c(n3c1CCC3)C(O)=C/C(=N\C1CC1)C2=O quantitymeasured=Metabolism observed="Not detected"
compound=Cc1c(CO)c2c(n1C)C(=O)C=C(N1CCCC1)C2=O quantitymeasured=Metabolism observed="Not detected"
compound=NC(=O)OCc1c2c(n3c1CCC3)C(=O)C=C(N1CCCCC1)C2=O quantitymeasured=Metabolism observed="Not detected"
compound=COC1=CC(=O)c2c(c(COC(N)=O)c(C)n2C)C1=O quantitymeasured=Metabolism observed="Not detected"
compound=COC1=CC(=O)c2c(c(COc3ccc([N+](=O)[O-])cc3)c(C)n2C)C1=O quantitymeasured=Metabolism observed="Not detected"
compound=NC(=O)OCc1c2c(n3c1CCC3)C(=O)C=C(N1CCCC1)C2=O quantitymeasured=Metabolism observed="Not detected"
compound=Cc1c(COC(N)=O)c2c(n1C)C(=O)C=C(N1CC1)C2=O quantitymeasured=Metabolism observed="Not detected"
compound="CC1CN1C1=CC(=O)c2c(c(COC(N)=O)c3n2CCC3)C1=O (stereo not given)" quantitymeasured=Metabolism observed="Not detected"
compound=COC1=CC(=O)c2c(c(COC(N)=O)c3n2CCC3)C1=O quantitymeasured=Metabolism observed="Not detected"

Kindly consider the entry below.
Reported Metabolism of COC1=CC(=O)c2c(c(COC(C)=O)c(C)n2C)C1=O : Not detected
